# PROTOCOL: Quantitative High-Throughput drug screen in 47 multiple myeloma cell lines against the NCATS MIPE library collection: INA6_PLB cell viability assay (AID 1918965; further: nearly all actives have a fitted effect of over 55% in size)
# RUN CONDITIONS: INA6 myeloma viability, CellTiter-Glo ATP luminescence, 48 h; series mostly up to 45.8 µM
Records with an inconclusive call do not appear. Active and inactive are the calls of the source. The call rests on the fitted dose curve; in most records, active means well fitted cell-killing curve with a large enough effect; inconclusive means small, poorly fitted or top-dose-only effect, or effect the other way; inactive means no such curve, though single readings can be large or run the other way.
Entry note: the call must match one of y = active, n = inactive

These recorded examples may help you get a feel for the data.
>>> print(df.to_string())
                                   molecule  classification
0  CCCCCCCCOc1ccccc1C(=O)Nc1ccc(C(=O)OCC[N+](C)(CC)CC)cc1               y
1  CCCCN(CCCC)CCC(O)c1cc2c(Cl)cc(Cl)cc2c2cc(C(F)(F)F)ccc12 (stereo unspecified)               y
2  Cc1cccc(CN2CCN(C(c3ccccc3)c3ccc(Cl)cc3)CC2)c1 (stereo unspecified)               y
3  COC(=O)N[C@H](C(=O)N[C@@H](Cc1ccccc1)[C@@H](O)CN(Cc1ccc(-c2ccccn2)cc1)NC(=O)[C@@H](NC(=O)OC)C(C)(C)C)C(C)(C)C               n
4  O=C(NCC1CCCCN1)c1cc(OCC(F)(F)F)ccc1OCC(F)(F)F (stereo unspecified)               y
5      O=C(O)c1cccc(-c2noc(-c3ccccc3F)n2)c1               y
6                                NCCCCNCCCN               y
7                   CCCCCCCCCCCCCCCCCCCCCCO               n
8  Cc1ccc(S(=O)(=O)NC(=O)NN2CC3CCCC3C2)cc1 (stereo unspecified)               y
9                c1cnc2cc3c(cc2n1)C1CNCC3C1               n

Next:
// query What did the test return for CCOC(=O)C(C)Oc1cccc2c(=O)n(CC(=O)Nc3ccc4c(c3)OCCO4)ccc12 (stereo unspecified) ?
// result n
